# system: T1, Recombinant human CD4 (R&D Systems, Cat. 10327-CD) (human, UniProt P01730 26-390, limits assumed)
# T1 construct: Bought protein; also called huCD4
# protocol summary: BLI (Octet Red384), purified antibody on anti-mouse Fc sensors, human CD4 100/50/25 nM, global 1:1 fit;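 further: antibodies loaded at 10 µg/mL, curves fitted across association and dissociation phases, with an unrelated mouse-derived antibody serving as internal reference control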
quantity kind: koff

// below: answered binders
>>> reported_result("75110_12K21A (antibody, V domains shown, Tested as antibody purified from AlivaMab Mouse Kappa hybridoma (human V regions, kappa light chain, mouse Fc captured by anti-mouse Fc sensors)) VH: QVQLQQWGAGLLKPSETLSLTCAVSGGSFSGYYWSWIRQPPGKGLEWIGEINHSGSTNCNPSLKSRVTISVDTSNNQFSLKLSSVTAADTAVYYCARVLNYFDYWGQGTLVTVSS VL: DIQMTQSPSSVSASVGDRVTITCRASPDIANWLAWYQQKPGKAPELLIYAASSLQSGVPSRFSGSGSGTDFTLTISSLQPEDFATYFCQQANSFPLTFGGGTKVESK")
"0.00021 s⁻¹"
>>> reported_result("75110_12H17A (antibody, V domains shown, Tested as antibody purified from AlivaMab Mouse Kappa hybridoma (human V regions, kappa light chain, mouse Fc captured by anti-mouse Fc sensors)) VH: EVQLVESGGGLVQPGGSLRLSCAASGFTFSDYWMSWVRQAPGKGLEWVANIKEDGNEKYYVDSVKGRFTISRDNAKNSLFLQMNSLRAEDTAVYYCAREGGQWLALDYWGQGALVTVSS VL: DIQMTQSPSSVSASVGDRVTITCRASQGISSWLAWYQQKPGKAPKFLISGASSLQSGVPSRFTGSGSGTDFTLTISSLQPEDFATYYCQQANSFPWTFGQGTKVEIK")
"0.0033 s⁻¹"
>>> reported_result("75110_09N20A (antibody, V domains shown, Tested as antibody purified from AlivaMab Mouse Kappa hybridoma (human V regions, kappa light chain, mouse Fc captured by anti-mouse Fc sensors)) VH: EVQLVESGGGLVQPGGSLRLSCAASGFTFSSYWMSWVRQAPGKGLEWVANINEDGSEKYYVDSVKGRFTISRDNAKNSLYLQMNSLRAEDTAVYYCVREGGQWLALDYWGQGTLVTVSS VL: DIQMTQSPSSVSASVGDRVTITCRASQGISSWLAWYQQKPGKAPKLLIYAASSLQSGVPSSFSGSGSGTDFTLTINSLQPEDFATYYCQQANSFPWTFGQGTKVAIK")
"0.0045 s⁻¹"
>>> reported_result("75110_08F20A (antibody, V domains shown, Tested as antibody purified from AlivaMab Mouse Kappa hybridoma (human V regions, kappa light chain, mouse Fc captured by anti-mouse Fc sensors)) VH: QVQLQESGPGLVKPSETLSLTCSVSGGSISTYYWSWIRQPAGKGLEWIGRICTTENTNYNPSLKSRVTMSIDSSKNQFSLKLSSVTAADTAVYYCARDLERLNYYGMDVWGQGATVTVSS VL: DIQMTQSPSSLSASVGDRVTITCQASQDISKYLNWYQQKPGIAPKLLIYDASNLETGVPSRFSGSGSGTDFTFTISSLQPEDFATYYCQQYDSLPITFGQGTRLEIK")
"0.0014 s⁻¹"

In the following, a different binder is considered.
Identify measured koff corresponding to 75110_10N21A (antibody, V domains shown, Tested as antibody purified from AlivaMab Mouse Kappa hybridoma (human V regions, kappa light chain, mouse Fc captured by anti-mouse Fc sensors)) VH: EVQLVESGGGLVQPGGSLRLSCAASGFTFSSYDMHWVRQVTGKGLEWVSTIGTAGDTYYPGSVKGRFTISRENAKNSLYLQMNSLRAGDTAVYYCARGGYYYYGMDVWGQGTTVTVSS VL: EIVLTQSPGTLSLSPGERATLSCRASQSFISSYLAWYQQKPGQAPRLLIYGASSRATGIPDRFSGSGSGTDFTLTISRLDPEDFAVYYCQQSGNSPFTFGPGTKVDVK
3.2e-05 s⁻¹
